Biological target: Programmed cell death protein 1/Programmed cell death 1 ligand 1 (Homo sapiens, UniProt Q9NZQ7)
Sequence (Q15116 whole entry): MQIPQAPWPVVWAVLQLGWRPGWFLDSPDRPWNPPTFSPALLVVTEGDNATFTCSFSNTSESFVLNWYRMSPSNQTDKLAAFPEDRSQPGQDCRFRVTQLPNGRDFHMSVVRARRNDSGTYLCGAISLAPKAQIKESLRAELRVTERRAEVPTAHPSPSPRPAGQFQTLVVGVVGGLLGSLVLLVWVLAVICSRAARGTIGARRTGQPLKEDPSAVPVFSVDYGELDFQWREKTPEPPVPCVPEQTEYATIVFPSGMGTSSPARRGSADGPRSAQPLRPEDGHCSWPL
Sequence (Q9NZQ7 whole entry): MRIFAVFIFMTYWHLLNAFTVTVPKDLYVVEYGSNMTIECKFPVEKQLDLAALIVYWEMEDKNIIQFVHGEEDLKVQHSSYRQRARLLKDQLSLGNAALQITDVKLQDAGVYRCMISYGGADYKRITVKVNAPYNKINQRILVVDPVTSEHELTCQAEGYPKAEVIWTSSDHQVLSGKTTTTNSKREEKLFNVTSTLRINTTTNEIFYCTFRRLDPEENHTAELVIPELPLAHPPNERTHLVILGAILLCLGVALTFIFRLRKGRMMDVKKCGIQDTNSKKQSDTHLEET
Assay: Inhibition of PD-1/PD-L1 (unknown origin) interaction incubated for 15 mins by HTRF assay
Format: protein-complex assay
ENDPOINT LABEL: IC50 (nM)
Express it in nM; write the number only.

### Prompt Fill in reported IC50 for this entry: COc1cc(OCc2cccc(-c3ccccc3)c2C)cc(OC)c1CNCc1cnnn1[C@H]1OC[C@@H](O)[C@H](O)[C@@H]1O
### Response 169

### Prompt Using the record for COc1nc(OCc2cccc(-c3ccccc3)c2C)ccc1CNCc1cn([C@H]2O[C@@H](C)[C@@H](O)[C@@H](O)[C@@H]2O)nn1 , state its measured IC50.
### Response 178

### Prompt Read the entry COc1cc(OCc2cccc(-c3ccccc3)c2C)cc(OC)c1CNCc1cn([C@@H]2O[C@H](CO)[C@@H](O)[C@H](O)[C@H]2NC(C)=O)nn1 and write its reported IC50.
### Response 30

### Prompt Give the reported value of IC50 for this record: COc1nc(OCc2cccc(-c3ccccc3)c2C)ccc1CNCc1cnnn1[C@H]1OC[C@@H](O)[C@H](O)[C@@H]1O
### Response 118

### Prompt Determine its reported IC50: COc1cc(OCc2cccc(-c3ccccc3)c2C)cc(OC)c1CNCc1cn([C@@H]2O[C@H](CO)[C@H](O)[C@H](O)[C@H]2O)nn1
### Response 454

### Prompt Tell us which IC50 value is on record for COc1cc(OCc2cccc(-c3ccccc3)c2C)cc(OC)c1CNCc1cn([C@@H]2OC[C@@H](O)[C@@H](O)[C@H]2O)nn1
### Response 206

### Prompt Let me know recorded IC50 for COc1cc(OCc2cccc(-c3ccccc3)c2C)cc(OC)c1CNCc1cn([C@H]2O[C@@H](C)[C@@H](O)[C@@H](O)[C@@H]2O)nn1 , thanks.
### Response 161

### Prompt Dear colleague, please send me the reported IC50 for COc1nc(OCc2cccc(-c3ccccc3)c2C)ccc1CNCc1cn([C@@H]2O[C@H](CO)[C@@H](O)[C@H](O)[C@H]2NC(C)=O)nn1 when you can.
### Response 23.7
